- procedure.text: Growth inhibition of human PC3 cells assessed as cell viability after 72 hrs by MTT assay
- Format: functional, cell-based
- condition.parameters: PC-3, 72 h
IC50 listing for selected compounds.

Example entries begin here.
>  <compound>
N#CCc1ccc(-n2c(=O)[nH]c3c(=O)oc4ccc(-c5ccncc5)cc4c32)cc1

>  <IC50>
37.1 µM

$$$$
>  <compound>
Cc1ccccc1-c1ccc2oc(=O)c3[nH]c(=O)n(-c4ccc(CC#N)cc4)c3c2c1

>  <IC50>
> 40 µM

$$$$

## Input Give recorded IC50. Cc1ccccc1-n1c(=O)[nH]c2c(=O)oc3ccc(-c4cnc5ccccc5c4)cc3c21
## Output > 40 µM

## Input Determine from records and report IC50 for O=c1oc2ccc(-c3cccc(NS(=O)(=O)c4ccc(F)cc4)c3)cc2c2c1[nH]c(=O)n2-c1ccccc1
## Output > 40 µM

###

Items are presented alongside their recorded IC50.
- procedure.text: Growth inhibition of human PC3 cells assessed as cell viability after 72 hrs by MTT assay
- Format: functional, cell-based
- condition.parameters: PC-3, 72 h
Give the number; µM is assumed, so skip it.

>  <smiles.entry>
N#CCc1ccc(-n2c(=O)[nH]c3c(=O)oc4ccc(-c5cnc6ccccc6c5)cc4c32)cc1

>  <units>
µM

>  <IC50>
30.2

$$$$
>  <smiles.entry>
N#CCc1ccc(-n2c(=O)[nH]c3c(=O)oc4ccc(-c5ccc(O)cc5)cc4c32)cc1

>  <units>
µM

>  <IC50>
30.6

$$$$
>  <smiles.entry>
N#CCc1ccc(-n2c(=O)[nH]c3c(=O)oc4ccc(-c5ccccc5)cc4c32)cc1

>  <units>
µM

>  <IC50>
35.3

$$$$

Okay, next one:
## Input Supply IC50 value. Item: CC(C)(C#N)c1ccc(-n2c(=O)[nH]c3c(=O)oc4ccc(-c5cccnc5)cc4c32)cc1
## Output 38.2

###

- procedure.text: Growth inhibition of human SW620 cells assessed as cell viability after 72 hrs by MTT assay
- Assay type: functional, cell-based
- condition.parameters: SW-620, 72 h
measure: IC50 (µM)
Please respond with the number in µM and leave the unit unwritten.

## Input Please give the documented IC50 of CN1c2c(c3cc(-c4cnc5ccccc5c4)ccc3oc2=O)N(c2ccc(C(C)(C)C#N)cc2)C1(C)OC(C)(C)C (stereo unspecified)
## Output 3.55

###

- procedure.text: Growth inhibition of human PC3 cells assessed as cell viability after 72 hrs by MTT assay
- Format: functional, cell-based
- condition.parameters: PC-3, 72 h
Exam item: assign rule met to entries whose IC50 is below 30 µM and rule not met to entries at or above 30 µM. Note that a value of exactly 30 µM receives rule not met.

>  <compound>
COc1ccc(-n2c(=O)[nH]c3c(=O)oc4ccc(-c5cnc6ccccc6c5)cc4c32)cc1

>  <category.label>
rule not met

$$$$
>  <compound>
COc1ccc(-n2c(=O)[nH]c3c(=O)oc4ccc(-c5ccncc5)cc4c32)cc1

>  <category.label>
rule not met

$$$$
>  <compound>
CN1c2c(c3cc(-c4cnc5ccccc5c4)ccc3oc2=O)N(c2ccc(C(C)(C)C#N)cc2)C1(C)OC(C)(C)C (stereo not given)

>  <category.label>
rule met

$$$$

For the next question, use this compound.
## Input Given the entry Nc1cccc(-c2ccc3oc(=O)c4[nH]c(=O)n(-c5ccccc5)c4c3c2)c1 , would its reported IC50 be below 30 µM?
## Output rule not met

###

- procedure.text: Growth inhibition of human PC3 cells assessed as cell viability after 72 hrs by MTT assay
- Format: functional, cell-based
- condition.parameters: PC-3, 72 h
The label is criterion met for IC50 below 30 µM and criterion not met for IC50 equal to or exceeding 30 µM.

As a guide, the following entries are already answered.
>  <smiles.entry>
CC(C)(C#N)c1ccc(-n2c(=O)[nH]c3c(=O)oc4ccc(-c5ccncc5)cc4c32)cc1

>  <category.label>
criterion met

$$$$
>  <smiles.entry>
N#CCc1ccc(-n2c(=O)[nH]c3c(=O)oc4ccc(-c5cccnc5)cc4c32)cc1

>  <category.label>
criterion not met

$$$$
>  <smiles.entry>
N#CCc1ccc(-n2c(=O)[nH]c3c(=O)oc4ccc(-c5cccc(N)c5)cc4c32)cc1

>  <category.label>
criterion not met

$$$$
>  <smiles.entry>
O=c1oc2ccc(-c3cnc4ccccc4c3)cc2c2c1[nH]c(=O)n2-c1ccccc1

>  <category.label>
criterion not met

$$$$
>  <smiles.entry>
O=c1oc2ccc(-c3cccnc3)cc2c2c1[nH]c(=O)n2-c1ccccc1

>  <category.label>
criterion not met

$$$$

## Input Threshold test, IC50 < 30 µM: O=c1oc2ccc(-c3ccccc3)cc2c2c1[nH]c(=O)n2-c1ccccc1
## Output criterion not met

## Input Does this compound meet the criterion IC50 < 30 µM? Cc1ccccc1-n1c(=O)[nH]c2c(=O)oc3ccc(-c4cccnc4)cc3c21
## Output criterion not met

## Input Does CC(C)(C#N)c1ccc(-n2c(=O)[nH]c3c(=O)oc4ccc(-c5cnc6ccccc6c5)cc4c32)cc1 have IC50 strictly under 30 µM?
## Output criterion met

## Input Please state whether IC50 is below 30 µM for Cc1ccccc1-n1c(=O)[nH]c2c(=O)oc3ccc(-c4ccncc4)cc3c21
## Output criterion not met

## Input Lab note: confirm whether the reported IC50 for this compound is below 30 µM, equality not counting. compound: COc1ccc(-n2c(=O)[nH]c3c(=O)oc4ccc(-c5cccnc5)cc4c32)cc1
## Output criterion not met
